- target_of_assay: mTOR (Homo sapiens, UniProt P42345)
measurement_kind: IC50 (µM)
Numbers only, in µM.

Quote IC50 reported for O=c1c(O)c(-c2ccc(O)c(O)c2)oc2cc(O)cc(O)c12 [quercetin, 3,3′,4′,5,7-pentahydroxyflavone] please. 7.8
